Each entry below carries its recorded target mRNA inhibition.
Tested System: KRAS
Condition Parameters: ASO, A431, 0.185 µM
After the bases stand the sugars from the 5' end (letter, count) and the backbone: PS all phosphorothioate, else s phosphorothioate and o phosphodiester by linkage. Methylation of C is not given here. e = 2'-O-(2-methoxyethyl) (MOE); k = constrained ethyl (cEt); d = 2'-deoxy (DNA)
Observable: target mRNA inhibition (%)

[[record]]
residue_string = "ATGCTGTGAAACTCTC (sugars k3 d10 k3, PS)"
measured_result = 26

[[record]]
residue_string = "TGGTGTAACATAGGTT (sugars kkdddddddddkdkdk, PS)"
measured_result = 13

[[record]]
residue_string = "GGTGTAACATAGGTTA (sugars kkddddddddkekekk, PS)"
measured_result = 0

[[record]]
residue_string = "CCATTCAAAGTTCACA (sugars kkddddddddddkeke, PS)"
measured_result = 19

